- System: SUP-B15
- ASSAY: Antiproliferative activity against human SUP-B15 cells after 72 hrs by CelTiter-Glo assay
- Type: functional, cell-based
- RECORDED_CONDITIONS: SUP-B15, 72 h
Reported pEC50 values for a set of compounds
Hey, just a heads up that pEC50 is the negative log base 10 of the concentration in molar.

See these solved cases before continuing.
> print(dat)
                              smiles.string  system.tested  recorded.value
1  COc1cc(OC)c2c(=O)cc(C(=O)Nc3ccc(Oc4ccc([N+](=O)[O-])cc4)cc3)[nH]c2c1        SUP-B15            5.37
2  COC(=O)c1cc(=O)c2cc(NC(=O)Nc3cccc(C(C)=O)c3)ccc2[nH]1        SUP-B15            4.94
3  C=CCNC(=O)Nc1ccc2c(c1)c(=O)cc(C(=O)OC)n2C(=O)NCC=C        SUP-B15            4.06

Q: Item under review: `COC(=O)c1cc(=O)c2cc(NC(=O)NC34CC5CC(CC(C5)C3)C4)ccc2[nH]1` . Reported pEC50?
Ans: 5.04
